Target: MEK3 (Homo sapiens, UniProt P46734)
Construct: purchased KinomeScan, a division of Ambit Biosciences
Sequence (P46734 whole entry): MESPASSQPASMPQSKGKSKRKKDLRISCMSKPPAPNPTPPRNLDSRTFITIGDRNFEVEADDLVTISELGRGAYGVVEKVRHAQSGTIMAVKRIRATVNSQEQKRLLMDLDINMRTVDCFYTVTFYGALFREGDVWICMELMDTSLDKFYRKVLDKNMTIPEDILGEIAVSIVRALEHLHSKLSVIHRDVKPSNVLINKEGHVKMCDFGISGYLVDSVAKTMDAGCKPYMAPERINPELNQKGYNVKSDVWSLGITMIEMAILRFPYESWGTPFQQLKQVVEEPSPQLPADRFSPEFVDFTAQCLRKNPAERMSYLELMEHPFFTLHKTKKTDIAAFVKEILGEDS
Experiment: KinomeScan competition binding assay
Settings: 10 μM compound
Form field: POC ligand binding, MEK3 (one value per entry).
// units = POC; emit number, no label

Previously resolved entries follow.
molecule: CCCNc1ncnc2ccc(N3CCOCC3)cc12 [compound 46]
POC ligand binding, MEK3 / POC: 100

molecule: N#Cc1ccc2ncnc(NCCc3ccccc3)c2c1 [compound 1]
POC ligand binding, MEK3 / POC: 18

molecule: COc1ccc2ncnc(NCCc3ccccc3)c2c1 [compound 44]
POC ligand binding, MEK3 / POC: 72

molecule: N#Cc1ccc2ncnc(NCc3ccc(Cl)cc3)c2c1 [compound 20]
POC ligand binding, MEK3 / POC: 76

molecule: N#Cc1ccc2ncnc(NCCc3ccc4ccccc4c3)c2c1 [compound 26]
POC ligand binding, MEK3 / POC: 78

The record that follows has no POC ligand binding, MEK3 shown yet.
Look up POC ligand binding, MEK3: CC(C)CNc1ncnc2ccc(C(F)(F)F)cc12 [compound 45] 71
